Reported pIC50 values for a set of compounds
Test system: HeLa
Test: Cytostatic activity against human HeLa 229 cells after 48 hrs by colorimetric microculture assay
Format: functional, cell-based
pIC50: −log10 of the molar value.
readout.name: pIC50

1) CC(=O)OC[C@@H](OC(C)=O)[C@H]1O[C@@H](n2cnc3c(Cl)nc(Cl)nc32)[C@H](OC(C)=O)[C@@H]1OC(C)=O = 4.62
2) Nc1nc(Cl)nc2c1ncn2[C@@H]1O[C@H]([C@H](O)CO)[C@@H](O)[C@H]1O = < 4.00
3) CCOc1nc(Cl)nc2c1ncn2[C@@H]1O[C@H]([C@H](O)CO)[C@@H](O)[C@H]1O = < 4.00
4) OC[C@@H](O)[C@H]1O[C@@H](n2cnc3c(-c4ccccc4)ncnc32)[C@H](O)[C@@H]1O = < 4.00
5) Nc1ncnc2c1ncn2[C@@H]1O[C@H]([C@H](O)CO)[C@@H](O)[C@H]1O = < 4.00
6) CNc1ncnc2c1ncn2[C@@H]1O[C@H]([C@H](O)CO)[C@@H](O)[C@H]1O = < 4.00
